Biological target: Protein kinase C (PKC)
Test: Inhibition of Protein Kinase C (PKC) isolated from HL-60 human promyelocytic leukemia cells
Format: cell-free
property.label: IC50 (µM)
Answers are plain numbers, in µM.

Use these answered entries as a reference point.
| compound | measurement.unit | IC50 |
| --- | --- | --- |
| CCCCCCCCCCCCCCCCCCOCC(COP(=O)([O-])OCC[N+](C)(C)C)OC (stereo unspecified) | µM | 12 |
| CCCCCCCCCCCCCCCCCCSCC(C[N+](C)(C)CCCO)OC.[I-] (stereo unspecified) | µM | 5 |
| CCCCCCCCCCCCCCCCSCC(C[N+](C)(C)C)OC.[Br-] (stereo unspecified) | µM | 25 |

For each of the items listed, what is its IC50?
1. CCCCCCCCCCCCCCCCCC1OCC(C[N+](C)(C)CCCO)O1.[Br-] (stereo unspecified)
2. CCCCCCCCCCCCCCCCOCC(COCC[N+](C)(C)C)OC.[Br-] (stereo unspecified)

1: 13; 2: 31
